Molecular target: Androgen receptor (Homo sapiens)
Assay: qHTS assay for small molecule antagonists of androgen receptor signaling (AID 588516); further: on the % scale 0 is the no-effect control and ±100 the full control effect
Settings: AR-UAS-bla HEK293, beta-lactamase ratio, antagonist mode, 16 h; series mostly up to 76.8 µM
Inconclusive results are not listed. Activity calls are given as the source filed them. The call rests on the fitted dose curve; in most records, active means well fitted curve in the direction sought with a large enough effect in the signal ratio, with a control signal flat (not every such curve was filed as active); inconclusive means small, poorly fitted or top-dose-only effect, or effect the other way, or a change in a side signal; inactive means no such curve, though single readings can be large or run the other way; the % refers to the signal ratio.

molecule	experimental_target	outcome
Oc1c(Br)c(Br)c(Br)c(Br)c1Br	Androgen receptor (Homo sapiens)	inactive
CNC(=O)Oc1cccc2c1OC(C)(C)C2O (stereo not drawn)	Androgen receptor (Homo sapiens)	inactive
O=C1NCCN1Cc1ccc(Cl)nc1	Androgen receptor (Homo sapiens)	inactive

====

Experiment: qHTS assay for environmental chemicals that activate the Aryl hydrocarbon Receptor (AhR) signaling pathway (AID 651777); further: % of control where 0% means no effect; nearly all actives have a fitted effect of over 15% in size
Details: 1A2-DRE human hepatoma cells, luciferase, 24 h; hits give high values
Results filed as inconclusive are left out.
Listing of recorded activation by entry.
Provide the reading as a plain figure in %.

compound	units_symbol	activation
CC(C1CC1)C(O)(Cn1cncn1)c1ccc(Cl)cc1 (stereo unspecified)	%	1.13
Brc1ccc(Oc2ccccc2)cc1	%	-0.643
Clc1ccc(-c2cc(Cl)c(Cl)cc2Cl)cc1Cl	%	1.74

Would you kindly share the measured activation for Nc1cccc(Cl)c1Cl ?
-0.499

====

Biological target: Retinoic acid receptor RXR-alpha (Homo sapiens)
Assay: qHTS assay for small molecule agonists of retinoid X receptor alpha signaling (AID 588544);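 further: 0% = DMSO basal wells and 100% = reference agonist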
Details: HEK293T RXRa-UAS-bla, beta-lactamase reporter, 18 h; series mostly up to 76.7 µM
Excerpt: NIH Chemical Genomics Center [NCGC] U.S. Environmental Protection Agency [EPA] National Institutes of Environmental Health Sciences [NIEHS] National Toxicology Program [NTP] NCGC Assay Overview The Retinoid X receptor (RXR), a nuclear hormone receptor is expressed in liver, spleen, placenta, epidermis, central nervous system. […]
Inconclusive results are not listed. The source made the active and inactive calls. Calls follow the shape of the full dose curve.
attribute_measured: outcome

Known outcome results, listed for orientation:
compound	outcome
FC(F)(F)c1ccc(OCCCOc2c(Cl)cc(OCC=C(Cl)Cl)cc2Cl)nc1	inactive
CNC(=S)S	inactive
CCOP(=O)(NC(C)C)Oc1ccc(S(C)=O)c(C)c1 (stereo unspecified)	inactive
S=C([S-])NCCNC(=S)[S-].[Zn+2]	inactive
COC(=O)c1sccc1S(=O)(=O)NC(=O)Nc1nc(C)nc(OC)n1	inactive

Give the measured outcome of CSC1=N[C@@](C)(c2ccccc2)C(=O)N1Nc1ccccc1 .
inactive

outcome lookup needed for Clc1ccc(C(c2ccc(Cl)cc2)C(Cl)Cl)cc1 , thanks.
inactive

Return reported outcome; argument: C#CCC1=C(C)[C@H](OC(=O)[C@H]2[C@H](C=C(C)C)C2(C)C)CC1=O
inactive

Record request: outcome value, item CCC/C(=N\OCC)C1=C(O)CC(CC(C)SCC)CC1=O (stereo unspecified)
inactive

Entry CN/C(=N\[N+](=O)[O-])NCc1cnc(Cl)s1 has what outcome?
inactive

Returns the measured outcome for the input compound. Input: C=CCC1=C(C)[C@@H](OC(=O)[C@@H]2[C@@H](C=C(C)C)C2(C)C)CC1=O
inactive

====

Assay: Cell Viability - N2a (AID 540);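 further: cells exposed to compound for 40 h at 37 °C; plate controls were DMSO alone for no effect and tamoxifen control for full effect; nearly all actives have a fitted effect of over 45% in size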
Settings: N2a mouse neuroblastoma cell viability; at 92.2 µM (top of the series)
Records with an inconclusive call do not appear.
attribute_measured: activity change, negative = cytotoxicity (%)
// return numeric value only (unit: %, not printed)

compound	units_symbol	activity change, negative = cytotoxicity
CCCCCCCCn1sccc1=O	%	-113
Nc1ccccc1C(=O)OCCc1ccccc1	%	-14.5
CC(C)CC(C)Nc1ccc(Nc2ccccc2)cc1 (centres undefined)	%	-118
CC(=O)[O-].CC(=O)[O-].O.O.[Cd+2]	%	-111
O=[N+]([O-])C(Br)Br	%	-119

As a next step, examine the compound that follows.
I would be grateful if you could share the reported activity change, negative = cytotoxicity for OC(c1ccc(Cl)cc1)(c1ccc(Cl)cc1)C(Cl)(Cl)Cl .
-118

====

Test system: CP238
Experiment: qHTS profiling for inhibitors of Plasmodium falciparum proliferation (AID 504749); further: nearly all actives have a fitted effect of over 60% in size
Conditions: P. falciparum in erythrocytes, SYBR Green DNA, 72 h; series mostly up to 28.7 µM
Procedure: NIH National Institute of Allergy and Infectious Diseases [NIAID] NIH Chemical Genomics Center [NCGC] […] Because mature erythrocytes lack DNA, only Plasmodium-derived DNA is detected. NCGC Assay Protocol Summary: The SYBR Green viability assay was adapted from a method described previously (Plouffe et al., 2008). […] The following morning, fluorescence intensity at 485(14) nm excitation and 535(25) nm emission wavelengths was measured on an EnVision (Perkin Elmer) plate reader. […]
Inconclusive results are not listed. Calls of active or inactive are those of the source. The call rests on the fitted dose curve; in most records, active means well fitted inhibition curve with a large enough effect; inconclusive means small, poorly fitted or top-dose-only effect; inactive means flat fitted curve, though single readings scatter.
Thanks in advance; please answer with one of these: active, inactive

compound	assigned_label
CCCN1CCCC2Cc3nc(N)ncc3CC21 (centres undefined)	inactive
C[C@@H]1CC[C@H]2[C@@H](C)C(=O)O[C@@H]3OC4(C)CC[C@@H]1C32OO4 (some centres undefined)	active

Please let me know the test result on file for CC(Cc1ccccc1)N(C)C (centres undefined) .
inactive

Please state the recorded outcome for this compound: CN(C)[C@H]1C(=O)C(C(N)=O)=C(O)[C@]2(O)C(=O)C3=C(O)c4c(O)cccc4[C@@](C)(O)[C@H]3C[C@@H]12
inactive

Hi, sorry to bother you, what did the test record for C[C@H](N)Cc1ccccc1 ?
inactive

What call does the record list for C=CC[N+]1(C)CCC23c4c5ccc(O)c4O[C@H]2C(=O)CC[C@@]3(O)C1C5 (some centres undefined) ?
inactive

Please state the recorded outcome for this compound: C[C@]12CCC3C(CCC4=C(Cl)C(=O)CC[C@@]43C)C1CCC2O (some centres undefined)
inactive

In this assay, the call recorded for CC12CCC3C4CCC(=O)C(O)=C4CCC3C1CCC2OC(=O)CCC1CCCC1 (centres undefined) was what?
inactive

Recorded call for Cc1ccc2c(c1)[C@@H]1CN(C)CC[C@H]1N2 ?
inactive

====

System: SC27B
Assay: qHTS profiling for inhibitors of Plasmodium falciparum proliferation (AID 504749); further: nearly all actives have a fitted effect of over 60% in size
Conditions: P. falciparum in erythrocytes, SYBR Green DNA, 72 h; series mostly up to 28.7 µM
Records with an inconclusive call do not appear. Active and inactive are the calls of the source. The call rests on the fitted dose curve; in most records, active means well fitted inhibition curve with a large enough effect; inconclusive means small, poorly fitted or top-dose-only effect; inactive means flat fitted curve, though single readings scatter.
Just give me one of these, please: T = active, F = inactive

For Cc1cc(C)cc(C(=O)OC2CC3CCC(C2)N3C)c1 (centres undefined) , which call appears in the assay record?
F

====

Experiment: qHTS assay for cell viability of the p53RE-bla HCT-116 cell line (AID 743292); further: on the % scale 0 is the no-effect control and ±100 the full control effect; nearly all actives have a fitted effect of over 55% in size
Settings: p53RE-bla HCT-116 viability, ATP luminescence, 16 h; series mostly up to 95 µM
Results filed as inconclusive are left out. The source made the active and inactive calls. Calls follow the shape of the dose curve; as a rule, active = well fitted cell-killing curve with a large enough effect; inconclusive = small, poorly fitted or top-dose-only effect, or effect the other way; inactive = flat fitted curve, though single readings scatter.
attribute_measured: outcome

These solved cases illustrate the format of a correct answer.
molecule	attribute_measured	meas_value
O=[N+]([O-])c1ccc(Oc2ccc(C(F)(F)F)cc2[N+](=O)[O-])cc1	outcome	inactive
Cc1nc(N(C)C)nc(OC(=O)N(C)C)c1C	outcome	inactive
Clc1ccc([C@]2(Cn3cncn3)C[C@@H](Br)CO2)c(Cl)c1	outcome	inactive
CC(O)CN(CC(C)O)CC(C)O (configuration not stated)	outcome	inactive
COc1cc(OC)nc(Sc2cccc(Cl)c2C(=O)O)n1	outcome	inactive
O=C(CCl)c1ccccc1	outcome	inactive

Suppose we examine the molecule CCN(CC)C(=O)C(C)Oc1cccc2ccccc12 (configuration not stated) ; what outcome value has been reported?
inactive

# outcome lookup, item CC1=C(C(=O)Nc2ccccc2)S(=O)(=O)CCO1
inactive

Tell me the measured outcome of O=C(O)C(F)(F)C(F)(F)C(F)(F)C(F)(F)C(F)(F)C(F)(F)C(F)(F)C(F)(F)F , please.
inactive

outcome lookup needed for CCC(C)(c1ccc(O)cc1)c1ccc(O)cc1 , thanks.
inactive

Which measured outcome value corresponds to CCC(C)(CC)c1cc(NC(=O)c2c(OC)cccc2OC)on1 ?
inactive

Fill blank: measured outcome of the molecule CCCCCCCCCCCCN(C)C is ____.
inactive

====

Test: Cell Viability - LYMP2-014 (AID 983);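 further: cells exposed to compound for 24 h at 37 °C; nearly all actives have a fitted effect of over 50% in size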
Conditions: LYMP2-014 lymphoblastoid cells, viability qHTS; series mostly up to 92.2 µM
Inconclusive results are not listed. Activity calls are given as the source filed them. Calls follow the shape of the dose curve; as a rule, active = well fitted cell-killing curve with a large enough effect; inconclusive = small, poorly fitted or top-dose-only effect; inactive = flat fitted curve, though single readings scatter.
Hi! Could you answer with just one of these? active, inactive

molecule	assigned_label
ClC1=C(Cl)C(Cl)(Cl)C(Cl)=C1Cl	active
Clc1ccc(C(c2ccc(Cl)cc2)C(Cl)Cl)cc1	inactive
CN(C)c1ccc(N=O)cc1	active
FC(F)(F)c1ccc(Cl)cc1	inactive
Nc1ccccc1C(=O)OCCc1ccccc1	inactive
CC(C)CC(C)Nc1ccc(Nc2ccccc2)cc1 (configuration not stated)	active
Oc1c(Br)c(Br)c(Br)c(Br)c1Br	inactive
c1cc(OCC2CO2)cc(OCC2CO2)c1 (configuration not stated)	active
CCCCCCCCn1sccc1=O	active
C=CC(=O)OCC(CO)(COC(=O)C=C)COC(=O)C=C	active

Please state the recorded outcome for this molecule: C#CCO
inactive

Please indicate how the test categorized N#CC(Cl)Cl .
active
